System: Escherichia coli
Test: Anti-microbial activity assay, MIC by broth microdilution
Assay type: cell-based
Details: Escherichia coli; strain UB1005; read-out: MIC Escherichia coli UB1005
readout-name: MIC (µg/mL)

> print(dat)
                                    compound  readout.name  reading.qualifier  value.reported
 1  CCN(Cc1ccc2c(c1)OCCO2)[C@H]1CC[C@H](COC(=O)c2cnc3ccc(OC)cc3c2)CC1 [Example 34]           MIC                  >              32
 2  COc1ccc2ncc(SCCN3CCC(NCc4cc5c(cc4Cl)SCCN5)CC3)nc2c1 [Example 49]           MIC                  =               4
 3  COc1ccc2ncc(SCCN3CCC(N(C)Cc4ccc5c(c4)OCCO5)CC3)nc2c1 [Example 43]           MIC                  =              16
 4  COc1ccc2ncc(SCCN3CCC(NC(=O)c4ccc5c(c4)NC(=O)CS5)CC3)cc2c1 [Example 53]           MIC                  =               4
 5  COc1ccc2ncc(OCCN3CCC(NC(=O)c4cc5c(cc4Cl)SCC(=O)N5)CC3)nc2c1 [Example 15]           MIC                  =               4
 6  COc1ccc2ncc(OCCN3CCC(N(C)Cc4ccc5c(c4)OCCO5)CC3)nc2c1 [Example 10]           MIC                  >              32
 7  COc1ccc2ncc(OCC[C@H]3CC[C@H](NC(=O)c4ccc5c(c4)NC(=O)CS5)CC3)nc2c1 [Example 4]           MIC                  >              32
 8  COc1ccc2ncc(SCCN3CCC(NCc4cc(-c5cccs5)on4)CC3)nc2c1 [Example 42]           MIC                  =               8
 9  COc1ccc2ncc(OCC[C@H]3CC[C@H](NC(=O)c4ccc5c(n4)NC(=O)CO5)CC3)cc2n1 [Example 3]           MIC                  >              32
10  COc1ccc2ncc(SCCN3CCC(NCc4ccc5c(n4)NC(=O)CO5)CC3)nc2c1 [Example 45]           MIC                  ≤               2
11  COc1ccc2ncc(SCCN3CCC(NC(=O)c4nc5c(cc4Cl)SCC(=O)N5)CC3)nc2c1 [Example 51]           MIC                  =               4
12  COc1ccc2ncc(OCCN3CCC(N(C)Cc4ccc5c(c4)NC(=O)CS5)CC3)nc2c1 [Example 25]           MIC                  =               8
13  COc1ccc2ncc(C(=O)OC[C@H]3CC[C@H](NCc4ccc5c(c4)OCCO5)CC3)cc2n1 [Example 29]           MIC                  >              32
14  COc1ccc2ncc(SCCN3CCC(NCc4cc5c(cc4Cl)SCC(=O)N5)CC3)nc2c1 [Example 48]           MIC                  ≤               2
15  COc1ccc2ncc(C(=O)OC[C@H]3CC[C@H](N(C)Cc4ccc5c(c4)OCCO5)CC3)cc2c1 [Example 32]           MIC                  >              32
16  COc1ccc2ncc(OCCN3CCC(NC(=O)c4ccc5c(n4)NC(=O)CS5)CC3)nc2c1 [Example 20]           MIC                  >              32
